Sourced from patent US8796246B2

Each record here notes measured Metabolic Rate.
- experimentSummary: Metabolic rate in human liver microsome
- Format: in vitro ADME
- conditionParameters: pooled human liver microsome 1 mg/mL protein, NADPH-regenerating system, 37° C., 2-60 minutes, HPLC
Report the figure in pmol/min/mg without appending any unit label.

1) C=C1/C(=C\C=C2/CCC[C@]3(C)C([C@H](C)OC(=O)CCC(C)(O)C(F)(F)F)=CC[C@@H]23)C[C@@H](O)C[C@@H]1O (single isomer, unassigned) | 60
2) C=C1C(=CC=C2CCCC3(C)C2CCC3C(C)OC(=O)C=CC(C)(C)O)CC(O)CC1O (centres unmarked) | 38
3) C=C1[C@H](O)CC(=C/C=C2\CCC[C@]3(C)C([C@H](C)OC(=O)CC[C@](C)(O)C(F)(F)F)=CC[C@@H]23)C[C@H]1O | 128

Can you look up the measured Metabolic Rate of C=C1C(O)CC(=CC=C2CCCC3(C)C2CCC3C(C)OC(=O)C=CC(O)(CC)CC)CC1O (centres unmarked) for me? 40

Could you tell me which Metabolic Rate is on file for CC(OC(=O)CCC(C)(C)O)C1CCC2C(=CC=C3CC(O)CC(O)C3)CCCC21C (centres unmarked) ? 65

Dear colleague, I am looking for the recorded Metabolic Rate of the following compound: C=C1C(=CC=C2CCCC3(C)C2CCC3C(C)OC(=O)CCC(O)(CC)CC)CC(O)CC1O (centres unmarked) 38

What value of Metabolic Rate has been reported for the following compound? C=C1C(=CC=C2CCCC3(C)C2CCC3C(C)OC(=O)CC(=O)C(C)(O)C(F)(F)F)CC(O)CC1O (centres unmarked) 33

I would be grateful if you could share the reported Metabolic Rate for CCC(O)(/C=C/C(=O)O[C@@H](C)[C@H]1CC[C@H]2/C(=C/C=C3C[C@@H](O)C[C@H](O)C3)CCC[C@]12C)CC . 34
